# TARGET SYSTEM: MMK1 protein kinase (Vicia faba, UniProt A0AAV1B7B8)
# Sequence (A0AAV1B7B8 1-394): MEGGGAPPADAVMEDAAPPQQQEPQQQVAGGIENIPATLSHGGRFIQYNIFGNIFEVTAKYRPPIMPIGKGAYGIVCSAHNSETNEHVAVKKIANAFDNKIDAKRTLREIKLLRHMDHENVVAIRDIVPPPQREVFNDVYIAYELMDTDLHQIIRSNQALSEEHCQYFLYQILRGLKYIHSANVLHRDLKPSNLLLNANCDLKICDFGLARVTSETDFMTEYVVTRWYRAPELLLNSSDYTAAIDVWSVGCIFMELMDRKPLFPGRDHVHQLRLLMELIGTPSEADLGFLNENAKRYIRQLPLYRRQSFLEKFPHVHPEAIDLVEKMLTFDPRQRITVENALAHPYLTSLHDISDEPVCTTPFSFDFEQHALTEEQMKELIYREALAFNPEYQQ
# PROTOCOL DETAILS: MMK1 protein kinase activity
# Type: biochemical
PROPERTY: log10(IC50) (log10 of the value in nM)
Values reflect log10 of reported IC50 (nM).

Take a look at these entries with their results.
> print(dat)
                                   compound     property  assay.value
1  Cc1n[nH]c2c(Nc3ccccc3)nc(NCCO)nc12 [2-hydroxyethylamino / anilino / methyl]  log10(IC50)         3.40
2    Cc1n[nH]c2c(NCc3cccc(O)c3)nc(NCCO)nc12  log10(IC50)         2.92

stdin: // returns reported log10(IC50) for input CC[C@H](CO)Nc1nc(N(C)Cc2ccc(O)c(O)c2)c2[nH]nc(C(C)C)c2n1
stdout: 2.71

stdin: // returns reported log10(IC50) for input Cc1n[nH]c2c(Nc3ccc(Cl)c(N)c3)nc(NCCO)nc12
stdout: 2.38

stdin: // returns reported log10(IC50) for input COc1cc(O)c(CNc2nc(NCCO)nc3c(C)n[nH]c23)cc1O
stdout: 2.20

----------
# System: myeloid leukemia KG1 cell line
# PROTOCOL DETAILS: Cell proliferation of KG1, flow cytometric cell count
# Assay type: cell-based, human
# TEST PARAMETERS: Homo sapiens, KG-1; 96 hours; read-out: KG1 IC50
PROPERTY: IC50 (µM)
# value in µM; strip the unit string

Take a look at these entries with their results.
> print(dat)
                                   compound  scale.unit  assay.value
1  CC(C)c1n[nH]c2c(NC(CO)c3ccccc3)nc(N3CCOCC3)nc12 (centres unmarked)          µM           28
2  CCCCCCNc1nc(NC(CO)c2ccccc2)c2[nH]nc(C(C)C)c2n1 (centres unmarked)          µM            5
3  CCC(CO)Nc1nc(NCc2ccc(O)c(O)c2)c2[nH]nc(C(C)C)c2n1 (centres unmarked)          µM            8

stdin: // returns reported IC50 for input CC(C)c1n[nH]c2c(SCc3ccccc3)nc(NCCCO)nc12
stdout: 42

stdin: // returns reported IC50 for input CC(C)c1n[nH]c2c(NCc3ccccc3)nc(NCCCO)nc12
stdout: 25

----------
# TARGET SYSTEM: MMK1 protein kinase (Vicia faba, UniProt A0AAV1B7B8)
Please map values of IC50 to classes as shown: class 1 (below 200 nM), class 2 (200 nM to below 900 nM), class 3 (900 nM or more)

These solved cases illustrate the format of a correct answer.
> print(dat)
                           structure.smiles  assigned.label
1  CC[C@H](CO)Nc1nc(Nc2ccc(Cl)c(N)c2)c2[nH]nc(C(C)C)c2n1         class 1
2   CC(C)c1n[nH]c2c(NCc3ccccc3)nc(NCCO)nc12         class 3
3      Cc1n[nH]c2c(NCc3ccccc3)nc(NCCCN)nc12         class 3
4  CC(C)c1n[nH]c2c(Nc3cccc(Cl)c3)nc(NCCN)nc12         class 2

stdin: Hey, which category is Cc1n[nH]c2c(Nc3ccc(Cl)c(C(=O)O)c3)nc(NCCO)nc12 in, do you know?
stdout: class 2

stdin: Hey, which category is Cc1n[nH]c2c(NCc3ccccc3O)nc(NCCO)nc12 in, do you know?
stdout: class 2

stdin: Hey, which category is CC(=O)c1ccccc1CNc1nc(N[C@@H](CO)C(C)C)nc2c(C(C)C)n[nH]c12 in, do you know?
stdout: class 1

stdin: Hey, which category is CC(C)c1n[nH]c2c(NCc3ccccc3)nc(NCCCO)nc12 in, do you know?
stdout: class 2

stdin: Hey, which category is CC(C)c1n[nH]c2c(NCc3ccccc3)nc(NCCN)nc12 in, do you know?
stdout: class 3

stdin: Hey, which category is CC[C@H](CO)Nc1nc(NCc2ccccc2)c2n[nH]c(C(C)C)c2n1 in, do you know?
stdout: class 1
